Tested on: normal primary NK cells, pool 1 (3 donors) (IL-2 2.5 ng/mL)
protocol-notes: percent inhibition of viability; higher = more inhibition
particulars: 72 h; 2.5 nM
So I've got a bunch of compounds here, and I need their percent inhibition of viability values.
Answers are plain numbers, in %.

# annotated cases, reported percent inhibition of viability shown
• Cc1cc([C@@H](C)Nc2ccccc2C(=O)O)c2nc(N3CCOCC3)cc(=O)n2c1 [AZD-6482] (max concentration tested 2500 nM) = -0.34
• COC[C@H](NC(=O)c1cnc(C)s1)C(=O)N[C@@H](COC)C(=O)N[C@@H](Cc1ccccc1)C(=O)[C@@]1(C)CO1 [Oprozomib] (max concentration tested 2500 nM) = 5.43
• CC(C)(C)c1nc(-c2cccc(NS(=O)(=O)c3c(F)cccc3F)c2F)c(-c2ccnc(N)n2)s1 [Dabrafenib] (max concentration tested 2500 nM) = -6.18
• C[C@@H]1CN(CC(=O)Nc2ccc3c(c2)Cc2cccc(-c4cc(=O)cc(N5CCOCC5)o4)c2S3)C[C@H](C)O1 (max concentration tested 25000 nM) = -8.95
• COc1ccc(Cl)c(Nc2nc3ccccc3nc2NS(=O)(=O)c2cccc(NC(=O)C(C)(C)N)c2)c1 [Pilaralisib] (max concentration tested 2500 nM) = -2.17

I would be grateful if you could provide percent inhibition of viability for each of the following entries.
1. O=C(NOCCO)c1ccc2cncn2c1Nc1ccc(I)cc1F [GDC-0623] (max concentration tested 2500 nM)
2. CC(=O)OC[C@H]1O[C@@H]([S-])[C@H](OC(C)=O)[C@@H](OC(C)=O)[C@@H]1OC(C)=O.CCP(CC)CC.[Au+] [Auranofin] (max concentration tested 2500 nM)

OUT:
1: -4.95; 2: -8.13

* * *

So I've got a bunch of compounds here, and I need their relative IC50 values.
Tested on: NK-92 (IL-2 2.5 ng/mL)
protocol-notes: relative IC50 (inflection point of fitted viability curve, relative to fitted max inhibition); higher = less sensitive
particulars: 72 h
Numbers only, in nM.

# annotated cases, reported relative IC50 shown
- C[C@]12O[C@H](C[C@]1(O)CO)n1c3ccccc3c3c4c(c5c6ccccc6n2c5c31)CNC4=O: 31.1
- COC[C@H](NC(=O)c1cnc(C)s1)C(=O)N[C@@H](COC)C(=O)N[C@@H](Cc1ccccc1)C(=O)[C@@]1(C)CO1: 32.4
- Cn1c(=O)n(-c2ccc(C(C)(C)C#N)cc2)c2c3cc(-c4cnc5ccccc5c4)ccc3ncc21: 15

Next up:
IN: Using the record for NC(=O)Nc1cc(-c2cccc(F)c2)sc1C(=O)N[C@H]1CCCNC1 , report its relative IC50.
OUT: 131

* * *

Tested on: normal primary NK cells, pool 1 (3 donors), resting (IL-2 0 ng/mL)
protocol-notes: drug sensitivity score (DSS) (DSS units); higher = more sensitive; extreme values may be limits of the assay
particulars: 72 h
Decision: drug sensitivity score >= 7 yields 1 (yes), all other cases yield 0 (no).

Some solved entries appear below for comparison.
• CC(C)c1c(C(=O)Nc2ccccc2)c(-c2ccccc2)c(-c2ccc(F)cc2)n1CC[C@@H](O)C[C@@H](O)CC(=O)O [Atorvastatin] (max concentration tested 10000 nM) = 0 (no)
• Cn1c(Nc2ccc(C(F)(F)F)cc2)nc2cc(Oc3ccnc(-c4ncc(C(F)(F)F)[nH]4)c3)ccc21 [RAF265] (max concentration tested 1000 nM) = 1 (yes)
• NC(=O)NO [Hydroxyurea] (max concentration tested 100000 nM) = 0 (no)

IN: # check: drug sensitivity score of CN[C@@H](C)C(=O)N[C@H]1CN(C(=O)CC(C)C)CC[C@H]2CC[C@@H](C(=O)NC(c3ccccc3)c3ccccc3)N2C1=O [AT-406] (max concentration tested 10000 nM) is greater than or equal to 7
OUT: 1 (yes)

IN: # check: drug sensitivity score of CN[C@@H](C)C(=O)N[C@H](C(=O)N1CCC[C@H]1c1nc(C(=O)c2ccc(F)cc2)cs1)C1CCCCC1 [LCL161] (max concentration tested 25000 nM) is greater than or equal to 7
OUT: 1 (yes)

IN: # check: drug sensitivity score of COc1cc(OC)c(/C=C/S(=O)(=O)Cc2ccc(OC)c(NCC(=O)O)c2)c(OC)c1 [Rigosertib] (max concentration tested 10000 nM) is greater than or equal to 7
OUT: 1 (yes)

From: the supplement of paper PMC5908809
